FYI, the data here is from paper PMC4948010.

- method: Intrinsic clearance in rat liver microsomes
- Assay type: in vitro ADME
measurement name: microsomal CLint (µL/min/mg)
Write the answer as a number in µL/min/mg, unit excluded.

(Q) Name the recorded microsomal CLint of the item "CNC(=O)Nc1cc(Oc2cncc(C)c2)c([C@H]2C[C@@H](O)C2)cn1" in your answer.
(A) 24
